Target: Prostaglandin E2 receptor EP2 subtype (Homo sapiens)
Assay: EP2 receptor modulators, dose response, cell-based, human EP2, PGE2 EC50 shift (AID 1421)
Details: EP2-expressing cells, PGE2 EC50 shift by compound; measured here: PGE2 EC50 at 6.7 uM compound
PGE2 EC50 with compound: recorded values
Form field: result (number plus unit)

Some compounds with known PGE2 EC50 with compound results, for comparison:
Cc1ccnc(SCC(=O)n2c3c(c4ccccc42)CC(C)CC3)n1 (stereo unspecified)
0.86 nM
CC(C)(C)C1CCc2onc(C(=O)Nc3cccnc3)c2C1 (stereo unspecified)
1.31 nM
COC(=O)CSc1nc2c(c(C3CC=CCC3)c1C#N)CCC2 (stereo unspecified)
1.26 nM

Looking up Cc1ccccc1N=C1SCC(=O)N1Cc1ccccc1 , I found its PGE2 EC50 with compound recorded as 1.2 nM

PGE2 EC50 with compound for CCC(=O)N(CC)c1nc(-c2cc(OC)ccc2OC)cs1 is 1.09 nM

Measured PGE2 EC50 with compound, O=C(O)CCCCCCCCCCCc1ccccc1 : 0.88 nM

====

Biological target: Prostaglandin E2 receptor EP2 subtype (Homo sapiens) (UniProt P43116)
Sequence (P43116 whole entry, looked up): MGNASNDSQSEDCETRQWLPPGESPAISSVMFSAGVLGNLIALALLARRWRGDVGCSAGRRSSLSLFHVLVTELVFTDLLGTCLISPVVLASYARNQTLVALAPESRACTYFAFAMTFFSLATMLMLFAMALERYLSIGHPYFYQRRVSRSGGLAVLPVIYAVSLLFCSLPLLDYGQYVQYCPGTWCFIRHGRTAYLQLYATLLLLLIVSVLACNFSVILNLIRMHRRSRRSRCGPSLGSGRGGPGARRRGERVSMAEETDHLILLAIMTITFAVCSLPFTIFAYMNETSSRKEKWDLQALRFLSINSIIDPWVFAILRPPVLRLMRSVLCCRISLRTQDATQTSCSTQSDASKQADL
Test: EP2 receptor modulators, dose response, cell-based, human EP2, PGE2 EC50 shift (AID 1421)
Conditions: EP2-expressing cells, PGE2 EC50 shift by compound; measured here: PGE2 EC50 at 6.7 uM compound
Here the recorded PGE2 EC50 with compound is given for each entry.
Only the number, expressed in nM, is required.

Recorded results for 5 compounds are shown here.
CCOC(=O)CN(C(=O)CSc1nnc(Cc2ccccc2)n1-c1ccc(C)cc1)c1ccccc1
1.48
CCC(=O)N(CCC(Cc1ccccc1)c1ccco1)Cc1ccco1 (stereo unspecified)
0.86
Clc1ccc(Cl)c(Nc2ccnc(SCc3ccccc3)n2)c1
0.64
COc1cccc(C(=O)Nc2cccc(OCC(=O)O)c2)c1
0.93
CCc1ccccc1NC1c2ccccc2C(=O)N1c1cc(C)ccn1 (stereo unspecified)
2.49

Note: attention shifts to another entry.
Consider Cc1ccccc1C(=O)Nc1ccccc1N1CCCCC1 . Its measured PGE2 EC50 with compound is 1.41

====

This listing pairs molecules with measured PGE2 EC50 with compound.
Biological target: UniProt:P43116
Test: EP2 receptor modulators, dose response, cell-based, human EP2, PGE2 EC50 shift (AID 1421)
Settings: EP2-expressing cells, PGE2 EC50 shift by compound; measured here: PGE2 EC50 at 6.7 uM compound
Respond with the bare value in nM.

Here's what some known entries look like.
CCOC(=O)c1cnc2c(c(C)nn2C)c1Oc1ccc(Cl)cc1
1.29
Cc1cccc(/C=N/Nc2cc(N3CCOCC3)nc(N3CCOCC3)n2)c1
1.08
CCOC(=O)C1CCCN(c2c(C(=O)c3ccccc3)cnc3ccc(OC)cc23)C1 (stereo unspecified)
1.15
Oc1ccc(/C=N/N2CCN(C3c4ccccc4-c4ccccc43)CC2)c(O)c1
2.52
CCOC(=O)c1c(NC(=O)c2ccco2)sc2c1CCCCC2
0.87
CCOc1ccc(N(Cc2ccc(OC)cc2)C(=O)c2ccco2)cc1
1.12
Cc1ccc(O)c(N=Cc2cc(Cc3ccccc3)cc([N+](=O)[O-])c2O)c1
1.07
C[C@H](N)[C@H](O)c1ccc(O)c(O)c1
1.32

Measured PGE2 EC50 with compound, O=C(O)c1ccc(-c2ccccc2Cl)o1 : 1.44

The value of PGE2 EC50 with compound measured for the molecule Cc1ccc2c(c1)N(Cc1cccc(Cl)c1)C(=O)c1cccnc1O2 turned out to be 0.95

Form field PGE2 EC50 with compound, entry COc1ccc(OC)c(C(=O)CSc2nnc(Cc3cccs3)n2CCc2ccccc2)c1 : 1.33
